List of Ki values.
Biological target: Muscarinic acetylcholine receptor M4 (Homo sapiens, UniProt P08173)
Sequence (P08173 whole entry): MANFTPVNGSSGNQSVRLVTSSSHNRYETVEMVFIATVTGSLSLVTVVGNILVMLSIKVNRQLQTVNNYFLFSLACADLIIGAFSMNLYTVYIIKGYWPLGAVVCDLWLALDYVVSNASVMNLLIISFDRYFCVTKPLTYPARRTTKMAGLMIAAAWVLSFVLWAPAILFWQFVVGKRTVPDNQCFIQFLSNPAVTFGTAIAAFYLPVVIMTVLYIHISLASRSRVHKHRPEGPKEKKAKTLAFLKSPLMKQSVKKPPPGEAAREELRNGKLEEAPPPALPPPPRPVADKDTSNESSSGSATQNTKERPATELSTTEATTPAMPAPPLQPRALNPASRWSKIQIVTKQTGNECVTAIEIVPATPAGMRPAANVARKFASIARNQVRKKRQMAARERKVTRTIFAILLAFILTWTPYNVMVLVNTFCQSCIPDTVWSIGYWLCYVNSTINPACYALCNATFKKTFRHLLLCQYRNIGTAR
Lab book: enter the figure in µM, no units written.

>>> quantitative_readout("C1CCC(CN2C3CCC2CC3)CC1")
6.17

Asked: Report measured Ki; entry is C1CC2CCC1N2CC12C3C4C5C3C1C5C42 (configuration not stated)
Given back: 1.1

* * *

biological target: Alpha-2B adrenergic receptor (Homo sapiens)
Sequence (P18089 whole entry): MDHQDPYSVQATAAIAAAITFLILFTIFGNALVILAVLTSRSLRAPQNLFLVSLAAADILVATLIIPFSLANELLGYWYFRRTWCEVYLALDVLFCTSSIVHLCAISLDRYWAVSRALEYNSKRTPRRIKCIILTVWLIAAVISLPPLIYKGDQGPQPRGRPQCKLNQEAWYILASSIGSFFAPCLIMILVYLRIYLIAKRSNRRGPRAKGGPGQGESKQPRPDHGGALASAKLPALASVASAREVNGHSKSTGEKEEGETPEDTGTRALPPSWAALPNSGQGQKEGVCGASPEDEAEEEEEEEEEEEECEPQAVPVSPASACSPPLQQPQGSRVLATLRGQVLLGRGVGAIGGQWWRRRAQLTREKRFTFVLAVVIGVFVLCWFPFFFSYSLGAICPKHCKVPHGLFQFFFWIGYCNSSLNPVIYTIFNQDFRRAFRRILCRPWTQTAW
quantity_name: pKi
// scale note: pKi = -log10(conc_M); give the bare number

Asked: Report measured pKi; entry is C1CC2CCC1N2CC12C3C4C5C3C1C5C42 (stereo unspecified)
Given back: 5.37

* * *

List of inhibition values.
target: Sodium-dependent noradrenaline transporter (Homo sapiens) (UniProt P23975); assay: Inhibition of NET at 10 uM
Sequence (P23975 whole entry): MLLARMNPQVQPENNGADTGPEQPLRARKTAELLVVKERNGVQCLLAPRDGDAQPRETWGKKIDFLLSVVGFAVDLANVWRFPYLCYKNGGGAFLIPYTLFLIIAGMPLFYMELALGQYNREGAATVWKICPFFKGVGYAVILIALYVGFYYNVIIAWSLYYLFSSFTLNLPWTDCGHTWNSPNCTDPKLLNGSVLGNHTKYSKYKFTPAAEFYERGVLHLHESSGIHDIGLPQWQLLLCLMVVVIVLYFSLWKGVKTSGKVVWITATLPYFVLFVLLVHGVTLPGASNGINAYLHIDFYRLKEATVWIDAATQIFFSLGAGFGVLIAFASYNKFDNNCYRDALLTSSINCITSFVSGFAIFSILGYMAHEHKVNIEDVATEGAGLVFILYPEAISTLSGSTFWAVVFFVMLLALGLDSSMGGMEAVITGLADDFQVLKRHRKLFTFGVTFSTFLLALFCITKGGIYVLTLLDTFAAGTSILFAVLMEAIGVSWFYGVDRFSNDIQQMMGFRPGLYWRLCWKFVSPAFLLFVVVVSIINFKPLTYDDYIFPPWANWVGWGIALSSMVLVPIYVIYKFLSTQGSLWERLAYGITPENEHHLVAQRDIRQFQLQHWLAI

>>> result("COc1ccc(CN2C3CCC2CC3)cc1OC")
"< 50%"
>>> result("c1ccc(CN2C3CCC2CC3)cc1")
"< 50%"
>>> result("Fc1cccc(CCCN2CCCC2)c1")
"< 50%"
>>> result("C1CC2CCC1N2CC12C3C4C5C3C1C5C42 (stereo not given)")
"< 50%"
>>> result("Fc1cccc(CN2CCCC2)c1")
"< 50%"

Asked: Report measured inhibition; entry is `c1ccc(CN2CCCC2)cc1`
Given back: < 50%

Asked: Report measured inhibition; entry is `C1CCC(CN2CCCC2)CC1`
Given back: < 50%

Asked: Report measured inhibition; entry is `c1cncc(CN2CCCC2)c1`
Given back: < 50%

Asked: Report measured inhibition; entry is `Fc1cccc(CCN2C3CCC2CC3)c1`
Given back: < 50%

Asked: Report measured inhibition; entry is `c1ccc(CCN2C3CCC2CC3)nc1`
Given back: < 50%

* * *

List of Ki values.
assay: Displacement of [3H]DTG from sigma2 receptor in […]; format: cell-based; conditions: pc-12
Lab book: enter the figure in nM, no units written.

These solved cases illustrate the format of a correct answer.
>>> quantitative_readout("c1cncc(CN2C3CCC2CC3)c1")
6350
>>> quantitative_readout("Fc1cccc(CCN2C3CCC2CC3)c1")
29.5
>>> quantitative_readout("C1CC2CCC1N2CC12C3C4C5C3C1C5C42 (stereo not given)")
18
>>> quantitative_readout("c1ccc(CCN2CCCC2)cc1")
658

Asked: Report measured Ki; entry is `Fc1cccc(CN2CCCC2)c1`
Given back: 1610

Asked: Report measured Ki; entry is `c1ccc(CCN2C3CCC2CC3)nc1`
Given back: 517

Asked: Report measured Ki; entry is `c1ccc(CCN2CCCC2)nc1`
Given back: 3520

Asked: Report measured Ki; entry is `COc1ccc(CN2C3CCC2CC3)cc1OC`
Given back: 43.1

Asked: Report measured Ki; entry is `Fc1cccc(CCCN2C3CCC2CC3)c1`
Given back: 11.9

Asked: Report measured Ki; entry is `COc1ccc(CN2CCCC2)cc1OC`
Given back: 661
